- system name: human TAS2R1 (Homo sapiens, UniProt Q9NYW7)
- Construct: expressed in transfected cells; host or cells: HEK293T-Gα16gust44
- Sequence (Q9NYW7 1-299): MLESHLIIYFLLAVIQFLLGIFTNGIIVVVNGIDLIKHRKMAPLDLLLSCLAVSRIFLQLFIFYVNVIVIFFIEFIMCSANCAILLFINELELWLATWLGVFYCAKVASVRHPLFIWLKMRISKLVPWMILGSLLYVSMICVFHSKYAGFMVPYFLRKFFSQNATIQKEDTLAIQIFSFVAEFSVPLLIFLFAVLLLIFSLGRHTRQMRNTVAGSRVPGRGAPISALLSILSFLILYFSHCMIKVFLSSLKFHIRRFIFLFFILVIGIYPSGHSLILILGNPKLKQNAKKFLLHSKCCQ
- protocol: Calcium imaging assay (FLIPR), HEK293T-Gα16gust44 cells transfected with human TAS2R1
- Assay type: cell-based
- condition label: Time 233.547 s
quantity: RLU (RLU)

* C[C@H](CCC(=O)NCCS(=O)(=O)O)[C@H]1CC[C@H]2[C@@H]3[C@H](O)C[C@@H]4C[C@H](O)CC[C@]4(C)[C@H]3C[C@H](O)[C@]12C [Taurocholic Acid, taurocholic acid] | 65.6166
* C[C@H](CCC(=O)NCCS(=O)(=O)O)[C@H]1CC[C@H]2[C@@H]3CC[C@@H]4C[C@H](O)CC[C@]4(C)[C@H]3CC[C@]12C [Taurolithocholic Acid, taurolithocholic acid] | -69.562
* C[C@H](CCC(=O)NCC(=O)O)[C@H]1CC[C@H]2[C@@H]3[C@H](O)C[C@@H]4C[C@H](O)CC[C@]4(C)[C@H]3C[C@H](O)[C@]12C [Glycocholic Acid, glycocholic acid] | 107.472
* C[C@H](CCC(=O)O)[C@H]1CC[C@H]2[C@@H]3CC[C@@H]4C[C@H](O)CC[C@]4(C)[C@H]3C[C@H](O)[C@]12C [Deoxycholic Acid, deoxycholic acid] | 202.574

// data source = paper PMC10247784
